# measured.target: SpCas9 (Streptococcus pyogenes serotype M1)
# experiment: eGFP disruption assay, SpCas9, U2OS.eGFP.PEST cells
# Assay type: cell-based
# particulars: replicate 2; normalized, lower control about 0, upper control about 1
quantity.kind: Normalized Z rep2

> print(dat)
                                    compound                           measured.target      quantity.kind  value
 1   Cc1c(P(=S)(N2CCOCC2)N2CCOCC2)cc(C#N)n1C  SpCas9 (Streptococcus pyogenes serotype M1)  Normalized Z rep2   0.06
 2  Cc1ccccc1C(=O)Nc1nc2ccc(S(N)(=O)=O)cc2s1  SpCas9 (Streptococcus pyogenes serotype M1)  Normalized Z rep2   0.43
 3  O=C(NCC1CCCO1)c1ccc(Oc2ccnc(-c3ccc(F)cc3)n2)cc1 (centres unmarked)  SpCas9 (Streptococcus pyogenes serotype M1)  Normalized Z rep2   0.01
 4  O=C(CCS(=O)(=O)c1ccc(Cl)cc1)Nc1nc(-c2ccccn2)cs1  SpCas9 (Streptococcus pyogenes serotype M1)  Normalized Z rep2   0.21
 5  Cc1nn(-c2ccccc2)c(C)c1CCc1nnc2sc(-c3ccccc3F)nn12  SpCas9 (Streptococcus pyogenes serotype M1)  Normalized Z rep2   0.12
 6  COc1ccc(CNC(=O)c2ccc(Oc3ccnc(-c4cccc(F)c4)n3)cc2)c(OC)c1  SpCas9 (Streptococcus pyogenes serotype M1)  Normalized Z rep2   0.19
 7  NC1=C(c2nc3ccccc3s2)C(=O)CN1N=Cc1ccc(-c2ccc(S(=O)(=O)Nc3ncccn3)cc2)o1  SpCas9 (Streptococcus pyogenes serotype M1)  Normalized Z rep2   0.56
 8  COc1ccc(Cc2nnc3sc(Cc4ccc(OC)c(OC)c4)nn23)cc1  SpCas9 (Streptococcus pyogenes serotype M1)  Normalized Z rep2  −0.05
 9  O=C(CSc1nccn1-c1cccc(F)c1)N1CCN(c2ccc(O)cc2)CC1  SpCas9 (Streptococcus pyogenes serotype M1)  Normalized Z rep2   0.26
10  O=C(NC1CCCCC1)c1cccc(Oc2cc(-c3ccccc3)ncn2)c1  SpCas9 (Streptococcus pyogenes serotype M1)  Normalized Z rep2  −0.11
11  C=CC1=C(C(=O)O)N2C(=O)[C@@H](NC(=O)C(=NOCC(=O)O)c3csc(N)n3)[C@H]2SC1.O  SpCas9 (Streptococcus pyogenes serotype M1)  Normalized Z rep2  −0.12

----------
# measured.target: UniProt J7RUA5
# Sequence (J7RUA5 1-1053): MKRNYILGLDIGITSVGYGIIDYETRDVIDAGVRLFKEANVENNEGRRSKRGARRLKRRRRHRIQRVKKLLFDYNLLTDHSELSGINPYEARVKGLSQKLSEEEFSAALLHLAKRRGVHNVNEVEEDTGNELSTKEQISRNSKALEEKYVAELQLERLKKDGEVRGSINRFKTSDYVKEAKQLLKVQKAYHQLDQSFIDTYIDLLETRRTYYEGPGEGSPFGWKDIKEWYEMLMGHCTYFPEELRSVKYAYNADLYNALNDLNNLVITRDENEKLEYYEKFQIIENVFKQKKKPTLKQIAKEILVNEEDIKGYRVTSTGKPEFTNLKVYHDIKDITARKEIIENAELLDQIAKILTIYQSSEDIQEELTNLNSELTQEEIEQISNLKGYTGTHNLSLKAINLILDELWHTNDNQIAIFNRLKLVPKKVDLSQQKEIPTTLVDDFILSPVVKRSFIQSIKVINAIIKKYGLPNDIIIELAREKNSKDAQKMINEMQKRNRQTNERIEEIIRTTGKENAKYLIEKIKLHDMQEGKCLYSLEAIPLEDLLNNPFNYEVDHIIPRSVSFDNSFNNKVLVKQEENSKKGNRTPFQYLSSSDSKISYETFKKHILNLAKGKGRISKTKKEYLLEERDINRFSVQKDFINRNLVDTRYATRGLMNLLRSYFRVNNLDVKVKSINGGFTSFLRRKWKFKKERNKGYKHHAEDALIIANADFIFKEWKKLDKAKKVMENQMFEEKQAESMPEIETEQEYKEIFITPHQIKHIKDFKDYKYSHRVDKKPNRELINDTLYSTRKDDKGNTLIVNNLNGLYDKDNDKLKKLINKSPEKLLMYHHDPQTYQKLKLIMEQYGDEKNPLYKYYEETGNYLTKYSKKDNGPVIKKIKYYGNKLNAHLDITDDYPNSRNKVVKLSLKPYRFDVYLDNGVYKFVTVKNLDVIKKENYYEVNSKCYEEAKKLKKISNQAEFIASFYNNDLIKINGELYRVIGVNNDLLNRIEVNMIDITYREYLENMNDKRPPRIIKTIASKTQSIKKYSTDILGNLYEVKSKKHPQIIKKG
# experiment: eGFP secondary assay, SaCas9
# Type: cell-based
# particulars: replicate 1
Classification field: met = Normalized Inhibition Rep 1 at or over 40; not met = Normalized Inhibition Rep 1 under 40.

> print(dat)
                                   compound  class.name
1  C=CC1=C(C(=O)O)N2C(=O)[C@@H](NC(=O)C(=NOCC(=O)O)c3csc(N)n3)[C@H]2SC1.O     not met
2  Cc1cc(-c2nn3c(-c4cccc(F)c4)nnc3s2)c2ccccc2n1     not met
3             NC(=O)c1sc(=S)n(Cc2ccccc2)c1N         met
4  Cc1cc(=O)c2cc(C(=O)Nc3ccc(F)cc3)ccc2[nH]1     not met
5  Cc1ccccc1CC(=O)N1CCCC(c2nc(O)c3nnn(Cc4ccc(F)cc4)c3n2)C1 (centres unmarked)     not met

----------
This listing pairs compounds with measured Normalized Z score 1.
# measured.target: SpCas9 (Streptococcus pyogenes serotype M1, UniProt Q99ZW2)
# Sequence (Q99ZW2 whole entry): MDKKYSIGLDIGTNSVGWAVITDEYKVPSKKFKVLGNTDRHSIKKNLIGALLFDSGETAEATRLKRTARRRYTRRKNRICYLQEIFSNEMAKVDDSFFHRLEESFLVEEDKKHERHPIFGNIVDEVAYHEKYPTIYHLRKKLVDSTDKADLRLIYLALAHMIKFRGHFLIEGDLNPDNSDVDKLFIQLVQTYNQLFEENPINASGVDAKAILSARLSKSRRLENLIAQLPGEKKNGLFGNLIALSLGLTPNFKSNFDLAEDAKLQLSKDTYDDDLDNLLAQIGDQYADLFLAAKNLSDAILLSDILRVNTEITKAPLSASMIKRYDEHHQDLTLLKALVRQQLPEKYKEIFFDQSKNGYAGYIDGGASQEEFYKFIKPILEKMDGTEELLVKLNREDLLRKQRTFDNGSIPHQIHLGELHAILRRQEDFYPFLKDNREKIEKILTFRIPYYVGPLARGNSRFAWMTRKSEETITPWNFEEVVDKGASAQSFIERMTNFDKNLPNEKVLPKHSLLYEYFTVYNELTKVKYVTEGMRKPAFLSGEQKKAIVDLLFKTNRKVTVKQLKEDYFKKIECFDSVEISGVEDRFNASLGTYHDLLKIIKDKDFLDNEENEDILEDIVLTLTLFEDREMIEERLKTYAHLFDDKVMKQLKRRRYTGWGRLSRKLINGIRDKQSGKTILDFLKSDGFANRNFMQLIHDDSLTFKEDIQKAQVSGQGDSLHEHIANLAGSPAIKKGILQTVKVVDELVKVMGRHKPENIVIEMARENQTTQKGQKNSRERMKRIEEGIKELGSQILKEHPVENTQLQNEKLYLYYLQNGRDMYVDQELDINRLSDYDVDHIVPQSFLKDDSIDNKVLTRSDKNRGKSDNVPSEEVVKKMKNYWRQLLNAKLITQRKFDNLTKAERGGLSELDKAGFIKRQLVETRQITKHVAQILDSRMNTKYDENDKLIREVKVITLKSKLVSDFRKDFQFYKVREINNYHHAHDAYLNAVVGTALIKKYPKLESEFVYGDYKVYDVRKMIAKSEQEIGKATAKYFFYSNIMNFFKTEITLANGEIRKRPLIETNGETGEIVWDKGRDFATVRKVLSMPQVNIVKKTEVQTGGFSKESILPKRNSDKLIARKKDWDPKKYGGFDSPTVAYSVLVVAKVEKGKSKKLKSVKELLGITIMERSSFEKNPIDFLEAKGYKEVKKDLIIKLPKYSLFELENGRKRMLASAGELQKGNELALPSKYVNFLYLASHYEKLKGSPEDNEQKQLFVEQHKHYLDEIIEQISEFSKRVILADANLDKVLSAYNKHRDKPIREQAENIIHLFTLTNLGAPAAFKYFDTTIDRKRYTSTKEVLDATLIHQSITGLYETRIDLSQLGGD
# experiment: Strand displacement assay (SDA) / cumulative activity assay (CAA), SpCas9 primary screen
# Format: biochemical
# particulars: Primary Screen (150 min); replicate 1
quantity.kind: Normalized Z score 1

> print(dat)
                                   compound  value
1  O=C(NCc1ccc(F)cc1)c1ccc(Oc2ccnc(-c3cccc(F)c3)n2)cc1 [Compound L662-0977]   0.42
2  CC(C)CNC(=O)c1ccc(Oc2ccnc(-c3ccc(F)cc3)n2)cc1 [Compound L662-0597]   0.36
3  Cl.Cl.Fc1cc(-c2cccc3ncc(-c4cnn(C5CCNCC5)c4)nc23)cc(F)c1CN1CCOCC1 [Compound S2686]   0.37
4  O=C(NC1CCCCC1)c1cccc(Oc2cc(-c3ccccc3)ncn2)c1 [Compound L663-0999]   0.44

----------
# measured.target: SpCas9 (Streptococcus pyogenes serotype M1, UniProt Q99ZW2)
# experiment: Strand displacement assay (SDA) / cumulative activity assay (CAA), SpCas9 primary screen
# Type: biochemical
# particulars: Primary Screen (150 min)
quantity.kind: Average Normalized Z score

> print(dat)
                                   molecule  value
1  O=C(Nc1ccc(F)c(Cl)c1)c1ccc(Oc2ccnc(-c3ccc(F)cc3)n2)cc1 [Compound L662-0654]   0.30
2  COc1ccc(CNC(=O)c2ccc(Oc3ccnc(-c4cccc(F)c4)n3)cc2)c(OC)c1 [Compound L662-0987]   0.37
3  O=C(NCc1ccc(F)cc1)c1ccc(Oc2ccnc(-c3cccc(F)c3)n2)cc1 [Compound L662-0977]   0.44

----------
# measured.target: SpCas9 (Streptococcus pyogenes serotype M1)
# experiment: Strand displacement assay (SDA) / cumulative activity assay (CAA), SpCas9 primary screen
# Assay type: biochemical
# particulars: Primary Screen (150 min)
Friendly reminder: avg z score primary below 5 is YES, at or above is NO.

> print(dat)
                                    compound                           measured.target  class.name
 1  CN1CCN(c2ccc(CNC(=O)Cn3ccc4c(SCc5ccccc5)nccc43)cc2)CC1  SpCas9 (Streptococcus pyogenes serotype M1)         YES
 2  O=C(COC(=O)c1cc(O)c(O)c(O)c1)NC1CCCc2ccccc21 (centres unmarked)  SpCas9 (Streptococcus pyogenes serotype M1)         YES
 3                  CCN1C(=O)c2cccc3cccc1c23  SpCas9 (Streptococcus pyogenes serotype M1)          NO
 4                CCC(CC)NC(=O)c1ccc2ncsc2c1  SpCas9 (Streptococcus pyogenes serotype M1)          NO
 5  Oc1c(C(c2cccs2)N2CCCCC2)ccc2cccnc12 (centres unmarked)  SpCas9 (Streptococcus pyogenes serotype M1)          NO
 6  O=C(NCc1ccc(F)cc1)c1ccc(Oc2ccnc(-c3cccc(F)c3)n2)cc1  SpCas9 (Streptococcus pyogenes serotype M1)          NO
 7  COc1ccc(-c2ccc3ncc4c(c3c2)n(-c2ccc(N3CCNCC3)c(C(F)(F)F)c2)c(=O)n4C)cn1.O=C(O)C=CC(=O)O  SpCas9 (Streptococcus pyogenes serotype M1)          NO
 8  O=C(NC1CCCC1)c1cccc(Oc2cc(-c3ccccc3)ncn2)c1  SpCas9 (Streptococcus pyogenes serotype M1)          NO
 9                            NC(=S)c1ccccn1  SpCas9 (Streptococcus pyogenes serotype M1)         YES
10        Cc1sc2nc3n(c(=O)c2c1-c1ccccc1)CCC3  SpCas9 (Streptococcus pyogenes serotype M1)         YES

Where do these numbers come from? They come from patent US20240115557A1.
